Molecular target: D(4) dopamine receptor (Homo sapiens, UniProt P21917)
Sequence (P21917 whole entry): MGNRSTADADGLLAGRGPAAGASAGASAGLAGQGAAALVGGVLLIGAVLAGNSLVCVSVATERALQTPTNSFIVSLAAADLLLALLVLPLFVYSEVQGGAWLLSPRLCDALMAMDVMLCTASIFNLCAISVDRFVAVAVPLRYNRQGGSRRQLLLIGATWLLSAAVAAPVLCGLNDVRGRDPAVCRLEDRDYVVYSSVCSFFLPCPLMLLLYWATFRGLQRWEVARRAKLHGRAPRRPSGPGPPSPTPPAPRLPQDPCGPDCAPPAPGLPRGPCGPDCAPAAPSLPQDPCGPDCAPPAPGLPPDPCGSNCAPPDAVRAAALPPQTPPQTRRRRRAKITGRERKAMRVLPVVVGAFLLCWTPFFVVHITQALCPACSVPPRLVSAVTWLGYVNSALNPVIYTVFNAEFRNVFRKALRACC
Readout Type: pKi
pKi is defined as minus the log10 of a concentration measured in mol/L.

Bench note: what pKi did CCOc1ccccc1N1CCN(CCCCc2cc(-c3ccc(OC)c(OC)c3)no2)CC1 show? 7.55

Now consider CCOc1ccccc1N1CCN(CCCCc2cc(-c3cccc([N+](=O)[O-])c3)no2)CC1 . 7.29

Now consider COc1ccc(-c2cc(CCCCN3CCN(c4ccccc4F)CC3)on2)cc1OC . 6.63
